IC50 values for the compounds below.
- Test Target: Potassium voltage-gated channel subfamily A member 3 (Homo sapiens)
- Protocol: Concentration inhibiting [125I]ChTX (charybdotoxin) binding to N-type potassium channel.
Numbers only; they are read as nM.

{"Mol": "CCCCCC/N=c1\\ccn(Cc2ccc(Cl)c(Cl)c2)c2cc(Cl)ccc12", "Endpoint Name": "IC50", "Unit Abbrev": "nM", "Result Value": 310}
{"Mol": "CCCCC/N=c1\\ccn(Cc2ccc(Cl)cc2)c2ccc(C(F)(F)F)cc12", "Endpoint Name": "IC50", "Unit Abbrev": "nM", "Result Value": 340}

We now examine a further compound.
Problem: Data request, read-out IC50, for `CCCCCCNc1cc[n+](-c2ccccc2)c2c(-c3ccccc3)cccc12`
Result: 930

---

- Test Target: Potassium voltage-gated channel subfamily A member 3 (Homo sapiens)
- Protocol: Concentration inhibiting [125I]ChTX (charybdotoxin) binding to N-type potassium channel.
IC50 values for the compounds below.
Numbers only; they are read as µM.

Record excerpt, results attached:
{"Compound": "CCCCC/N=c1\\ccn(Cc2ccc(Cl)cc2)c2cc(C(F)(F)F)ccc12", "IC50 [µM]": 0.239}
{"Compound": "CCCCCCCC/N=c1\\ccn(Cc2ccccc2)c2cc(Cl)ccc12", "IC50 [µM]": 0.28}
{"Compound": "CCCC/N=c1\\ccn(CCCc2ccccc2)c2cc(Cl)ccc12", "IC50 [µM]": 0.471}
{"Compound": "CCCC/N=c1\\ccn(Cc2ccccc2)c2cc(Cl)ccc12", "IC50 [µM]": 0.198}

Problem: Data request, read-out IC50, for CC(C)CCCC(C)/N=c1\ccn(Cc2ccccc2)c2cc(Cl)ccc12 (stereo unspecified)
Result: 0.817

Problem: Try this compound too: `CC(C)C/N=c1\ccn(Cc2ccccc2)c2cc(Cl)ccc12`
Result: 0.206

Problem: Try this compound too: `CCCCCC/N=c1\ccn(Cc2ccc(Cl)cc2)c2cc(Cl)ccc12`
Result: 0.1

Problem: Try this compound too: `CCCCCCNc1cc[n+](C)c2c(-c3ccccc3)cccc12`
Result: 0.24

---

- Protocol: Inhibition of [3H]dofetilide binding to guinea pig cardiac potassium (K+) channels.
- Design: species or system Cavia porcellus
Endpoint Name: IC50 (µM)
Numbers only; they are read as µM.

Record excerpt, results attached:
{"Mol": "Clc1ccc2/c(=N/C34CC5CC(CC(C5)C3)C4)ccn(Cc3ccccc3)c2c1", "IC50 [µM]": 0.157}
{"Mol": "CCCCCC/N=c1\\ccn(Cc2ccc(Cl)cc2)c2cc(Cl)ccc12", "IC50 [µM]": 3.23}
{"Mol": "CCCCC/N=c1\\ccn(Cc2ccc(Cl)cc2)c2ccc(C(F)(F)F)cc12", "IC50 [µM]": 0.14}

We now examine a further molecule.
Problem: Data request, read-out IC50, for `CCCCCCC/N=c1\ccn(Cc2ccccc2)c2cc(Cl)ccc12`
Result: 2.5

---

- Test Target: Potassium voltage-gated channel subfamily A member 3 (Homo sapiens, UniProt P22001)
- Sequence (P22001 whole entry): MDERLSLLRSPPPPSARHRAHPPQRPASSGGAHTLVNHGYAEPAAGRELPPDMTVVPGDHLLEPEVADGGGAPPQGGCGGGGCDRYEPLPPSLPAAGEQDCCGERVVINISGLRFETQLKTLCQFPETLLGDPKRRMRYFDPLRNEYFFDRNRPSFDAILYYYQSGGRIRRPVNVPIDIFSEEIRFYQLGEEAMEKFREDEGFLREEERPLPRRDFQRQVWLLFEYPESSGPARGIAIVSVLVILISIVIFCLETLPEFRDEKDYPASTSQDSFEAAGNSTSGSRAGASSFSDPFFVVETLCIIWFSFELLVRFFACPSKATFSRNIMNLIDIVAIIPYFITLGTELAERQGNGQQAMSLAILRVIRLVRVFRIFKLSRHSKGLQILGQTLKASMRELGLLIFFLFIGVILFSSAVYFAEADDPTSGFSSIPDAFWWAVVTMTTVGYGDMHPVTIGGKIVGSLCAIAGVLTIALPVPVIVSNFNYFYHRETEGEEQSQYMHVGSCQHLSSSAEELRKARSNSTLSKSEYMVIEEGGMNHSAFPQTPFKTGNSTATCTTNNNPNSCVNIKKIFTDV
- Protocol: Inhibition of outward potassium currents (IKn) in human T-lymphocyte N-type potassium channels.
- Assay type: functional
pIC50: −log10 of the molar value.
The threshold is inclusive: pIC50 of exactly 6 counts as Condition met; values below receive Condition not met.

Some solved entries appear below for comparison.
{"Mol": "CCCCCCCC/N=c1\\ccn(Cc2ccccc2)c2cc(Cl)ccc12", "Class Name": "Condition met"}
{"Mol": "CCCCCCC/N=c1\\ccn(Cc2ccccc2)c2cc(Cl)ccc12", "Class Name": "Condition met"}
{"Mol": "CCCCCCNc1cc[n+](C)c2c(-c3ccccc3)cccc12", "Class Name": "Condition met"}
{"Mol": "CCCC/N=c1\\ccn(Cc2ccccc2)c2cc(Cl)ccc12", "Class Name": "Condition not met"}

Alright, here's another compound for you.
Problem: Please indicate if the recorded pIC50 for `CCCCCC/N=c1\ccn(Cc2ccc(OC)cc2)c2cc(Cl)ccc12` meets or exceeds 6.
Result: Condition met
